systemUnderTest: norovirus GII.17 Saitama strain virus-like particle (VLP) (norovirus GII.17 Saitama strain)
experimentDescription: BLI (BLItz), biotinylated peptide on SA chip, VLP in solution
Where no end group is shown, it is not given here.
valueType: kon (M⁻¹ s⁻¹)
Give the quantity in M⁻¹ s⁻¹, number only.

Here are 4 binders together with their reported answers.
Prompt: Could you tell me which kon is on file for ICSSWFPSVH (also: biotinylated, residue not given here, spacer sequence added, letters and position not given here) [norovirus-binding peptide of SEQ ID NO: 48] ?
Completion: 1.28e+06

Prompt: I would be grateful if you could share the reported kon for KYRATICHTV (also: biotinylated, residue not given here, spacer sequence added, letters and position not given here) [norovirus-binding peptide of SEQ ID NO: 52] .
Completion: 1.29e+06

Prompt: # get_value(readout='kon', item= VVGFGRRSLF (also: biotinylated, residue not given here, spacer sequence added, letters and position not given here) [norovirus-binding peptide of SEQ ID NO: 156] )
Completion: 398

Prompt: Entry SVMVTRSLFG (also: biotinylated, residue not given here, spacer sequence added, letters and position not given here) [norovirus-binding peptide of SEQ ID NO: 163] : reported kon = ?
Completion: 110000

***
Prompt: For the binder YRRSKSEIFV (also: biotinylated, residue not given here, spacer sequence added, letters and position not given here) [norovirus-binding peptide of SEQ ID NO: 59] , what kon is on record?
Completion: 134000

Prompt: Would you kindly share the measured kon for YVIRNSDRHN (also: biotinylated, residue not given here, spacer sequence added, letters and position not given here) [norovirus-binding peptide of SEQ ID NO: 43] ?
Completion: 822
